tested on: Nakaseomyces glabratus; test: Antifungal activity against Candida glabrata 20/I after 24 hrs by microdilution method; format: functional
result-type: log10 IC80 (log10 of the value in µM)
Remember, log10 of IC80, in µM.

{"smiles-text": "Cc1ccc(/C=C/C=C2C(=O)C=CC2=O)cc1", "subject-of-test": "Nakaseomyces glabratus", "data-value": 1.49}

I'm hoping you can list log10 IC80 for every compound here, please.
1. COc1ccc(/C=C/C=C2C(=O)C=CC2=O)cc1
2. OC(Cn1cncn1)(Cn1cncn1)c1ccc(F)cc1F
3. Cc1ccc(C=C2C(=O)C=CC2=O)cc1
4. COC(/C=C/c1ccccc1)=C1\C(=O)C=C(C)C1=O
5. O=C1C=CC(=O)C1=Cc1ccc2ccccc2c1
6. O=C1C=CC(=O)C1=Cc1ccc(Br)cc1

1. 2.40
2. 1.34
3. 1.19
4. 2.10
5. 1.49
6. 1.19

I'm hoping you can list log10 IC80 for every compound here, please.
1. O=C1C=CC(=O)C1=Cc1ccco1
2. O=C1C=CC(=O)C1=Cc1cccc(Br)c1
3. O=C1C=CC(=O)C1=Cc1cccs1
4. O=C1C=CC(=O)C1=C/C=C/c1ccccc1
5. O=C1C=CC(=O)C1=Cc1ccccc1
6. O=C1C=CC(=O)C1=C/C=C/c1ccc(Cl)cc1
7. CN(C)c1ccc(C=C2C(=O)C=CC2=O)cc1

1.19
1.49
0.89
1.19
0.89
1.80
1.80

The measured values listed here are drawn from ChEMBL document CHEMBL1833895.
